Target: Hcrtr1 (orexin 1 receptor) (Homo sapiens)
Construct: membranes from CHO-K1 cells stably expressing HCRTR1
Sequence (O43613 whole entry): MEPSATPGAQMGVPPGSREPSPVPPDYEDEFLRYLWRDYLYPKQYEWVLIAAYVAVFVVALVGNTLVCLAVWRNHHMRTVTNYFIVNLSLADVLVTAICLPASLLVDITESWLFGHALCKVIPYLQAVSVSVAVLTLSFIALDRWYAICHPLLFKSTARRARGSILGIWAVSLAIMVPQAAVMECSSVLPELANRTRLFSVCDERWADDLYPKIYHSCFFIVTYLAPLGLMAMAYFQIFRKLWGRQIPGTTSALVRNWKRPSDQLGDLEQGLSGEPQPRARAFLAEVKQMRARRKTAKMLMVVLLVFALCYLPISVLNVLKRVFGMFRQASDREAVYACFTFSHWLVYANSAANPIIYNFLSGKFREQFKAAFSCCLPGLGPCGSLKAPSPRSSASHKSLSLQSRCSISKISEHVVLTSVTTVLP
Assay: radioligand displacement of [3H]SB674042; also FLIPR Ca2+ antagonism in Chem-1 cells (IC50 […])
Property measured: pKi
For clarity, pKi is expressed as the negative log10 of concentration in mol/L.

Summary for this compound, C[C@]1(Nc2cnc(C(F)(F)F)cn2)CCC[C@@H]1NC(=O)c1ncccc1-n1nccn1 : pKi is 7.86

---

Biological target: mouse Hcrtr1 (Mus musculus)
Construct: CHO-K1 cells expressing Gα16 and mouse Hcrtr1
Sequence (P58307 whole entry): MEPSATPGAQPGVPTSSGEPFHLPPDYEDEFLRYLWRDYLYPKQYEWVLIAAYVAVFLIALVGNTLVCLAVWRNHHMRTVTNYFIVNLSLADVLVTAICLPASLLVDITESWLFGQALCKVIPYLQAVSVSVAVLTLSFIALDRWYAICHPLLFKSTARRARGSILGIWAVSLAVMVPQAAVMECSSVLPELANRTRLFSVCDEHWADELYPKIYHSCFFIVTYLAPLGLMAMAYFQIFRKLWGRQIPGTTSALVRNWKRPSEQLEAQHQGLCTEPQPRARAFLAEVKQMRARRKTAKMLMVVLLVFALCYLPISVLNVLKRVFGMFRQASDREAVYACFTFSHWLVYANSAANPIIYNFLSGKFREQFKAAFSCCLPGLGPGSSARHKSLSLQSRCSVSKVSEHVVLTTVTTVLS
Experiment: FLIPR Ca2+ flux, antagonism of orexin A response
Property measured: IC50 (nM)
State just the number; it will be interpreted in nM.

IC50 for mouse Hcrtr1 (Mus musculus) with input C[C@]1(Nc2cnc(C(F)(F)F)cn2)CCC[C@@H]1NC(=O)c1ncccc1-n1nccn1 equals 18
